Where do the numbers come from? From patent US8338422B2.

# TEST TARGET: UniProt O00444
# METHOD SUMMARY: PLK-4 human kinase assay (SPA)
# Type: biochemical
# TEST CONDITIONS: read-out: PLK4 pIC50 (converted)
Response field label: string, one of 1 (IC50 strictly below 5 µM) or -1.

Observe how each entry below is paired with its result.
CN1CCNc2ncnc3c2/C(=C/Nc2cccc(c2)OCCCN(C)[C@H](CO)C1=O)C(=O)N3 : 1
CN1CCNc2ncnc3c2/C(=C/Nc2ccc(Cl)c(c2)OCCCCCC1=O)C(=O)N3 : 1
CN1CCC(=O)NCC#Cc2cccc3c2/C(=C/Nc2cccc(c2)S(=O)(=O)N(C)CC1=O)C(=O)N3 : 1
CN1CCN(c2ccc3cc2CN(C)CCCCC(=O)N(C)CCNc2ncnc4c2/C(=C/N3)C(=O)N4)CC1 : 1
COc1ccc2cc1OCCCCCCC(=O)NCCN(C)c1ncnc3c1/C(=C/N2)C(=O)N3 : 1

Report whether reported IC50 is lower than 5 µM (strictly) for "COc1cc2cc(c1OC)CN(C)CC(=O)N(C)CCCNc1ncnc3c1/C(=C/N2)C(=O)N3"
-1

Report whether reported IC50 is lower than 5 µM (strictly) for "CN1CCCNc2ncnc3c2/C(=C/Nc2ccc(Cl)c(c2)OCCCCCCC1=O)C(=O)N3"
-1

###

# TEST TARGET: GSK3β (h) (Homo sapiens, UniProt P49841)
# Sequence (P49841 whole entry): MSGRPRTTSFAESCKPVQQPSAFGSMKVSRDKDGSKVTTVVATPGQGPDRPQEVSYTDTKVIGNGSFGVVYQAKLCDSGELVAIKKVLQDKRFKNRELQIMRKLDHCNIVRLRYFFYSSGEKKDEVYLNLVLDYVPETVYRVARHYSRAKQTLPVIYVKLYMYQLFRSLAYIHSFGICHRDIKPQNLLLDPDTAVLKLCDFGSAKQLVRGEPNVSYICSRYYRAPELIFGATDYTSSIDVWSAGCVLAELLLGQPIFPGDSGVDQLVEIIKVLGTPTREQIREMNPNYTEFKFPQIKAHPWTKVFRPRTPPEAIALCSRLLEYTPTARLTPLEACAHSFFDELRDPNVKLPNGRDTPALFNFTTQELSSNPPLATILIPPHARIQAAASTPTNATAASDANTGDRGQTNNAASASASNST
# METHOD SUMMARY: GSK-3β human kinase assay (SPA)
# Format: biochemical
Field: GSK3B pIC50. Provide a value for each of the molecules that follow.
Answers are plain numbers.

List the reported GSK3B pIC50 of each molecule below.
1. CN1CCN(c2ccc3cc2OCCCCC(=O)N(C)CCNc2ncnc4c2C(=CN3)C(=O)N4)CC1 (mixture of isomers)
2. CN1CCCNc2ncnc3c2C(=CNc2cccc(c2)OCCCCC1=O)C(=O)N3 (mixture of isomers)
3. COc1ccc2cc1OCCCCCC(=O)NCCN(C)c1ncnc3c1C(=CN2)C(=O)N3 (mixture of isomers)
4. COc1cc2cc(c1OC)OCCCC(=O)NCCCNc1ncnc3c1C(=CN2)C(=O)N3 (mixture of isomers)
5. COc1ccc2cc1OCCCC(=O)N(C(C)C)CCCCN(C)c1ncnc3c1C(=CN2)C(=O)N3 (mixture of isomers)
6. CN1CCN(c2ccc3cc2CN(C)CCCCCC(=O)N(C)CCCNc2ncnc4c2C(=CN3)C(=O)N4)CC1 (mixture of isomers)
7. CN1CCCNc2ncnc3c2C(=CNc2ccc(N4CCOCC4)c(c2)OCCCCC1=O)C(=O)N3 (mixture of isomers)
8. COc1ccc2cc1OCCCC(=O)N(C(C)C)CCCNc1ncnc3c1C(=CN2)C(=O)N3 (mixture of isomers)

[6.2, 7.28, 5.07, 6.5, 5.33, 5.58, 7.45, 7.32]

###

# TEST TARGET: PLK4 (h) (Homo sapiens, UniProt O00444)
# Sequence (O00444 whole entry): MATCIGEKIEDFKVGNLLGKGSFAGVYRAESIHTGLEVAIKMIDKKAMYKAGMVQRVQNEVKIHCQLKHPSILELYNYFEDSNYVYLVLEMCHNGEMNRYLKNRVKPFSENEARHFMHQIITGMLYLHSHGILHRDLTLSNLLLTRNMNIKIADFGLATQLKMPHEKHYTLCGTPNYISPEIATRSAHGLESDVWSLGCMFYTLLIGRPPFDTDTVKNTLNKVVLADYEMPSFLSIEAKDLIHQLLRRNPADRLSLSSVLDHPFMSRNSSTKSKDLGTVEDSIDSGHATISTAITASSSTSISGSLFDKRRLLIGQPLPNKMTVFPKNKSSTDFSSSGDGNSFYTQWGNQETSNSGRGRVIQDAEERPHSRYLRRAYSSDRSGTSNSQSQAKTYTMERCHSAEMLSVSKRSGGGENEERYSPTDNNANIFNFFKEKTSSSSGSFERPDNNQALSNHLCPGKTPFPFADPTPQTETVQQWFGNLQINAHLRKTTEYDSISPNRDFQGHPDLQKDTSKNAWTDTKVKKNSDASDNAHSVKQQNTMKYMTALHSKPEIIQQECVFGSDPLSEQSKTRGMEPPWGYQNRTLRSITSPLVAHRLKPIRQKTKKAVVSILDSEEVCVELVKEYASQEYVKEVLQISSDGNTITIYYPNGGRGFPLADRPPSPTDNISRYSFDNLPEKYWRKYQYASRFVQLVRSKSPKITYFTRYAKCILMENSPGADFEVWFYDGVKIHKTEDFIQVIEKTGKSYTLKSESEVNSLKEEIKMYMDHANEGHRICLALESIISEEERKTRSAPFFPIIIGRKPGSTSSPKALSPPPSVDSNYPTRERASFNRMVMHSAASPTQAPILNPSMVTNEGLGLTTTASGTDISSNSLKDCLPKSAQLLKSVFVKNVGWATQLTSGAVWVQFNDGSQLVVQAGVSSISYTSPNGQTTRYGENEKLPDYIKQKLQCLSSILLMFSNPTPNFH
# METHOD SUMMARY: PLK-4 human kinase assay (SPA)
# Assay type: biochemical
# TEST CONDITIONS: read-out: PLK4 pIC50 (converted)
Field: log10(IC50). Provide a value for each of the molecules that follow.
For clarity, the numbers are log10 values of IC50 expressed in nM.

CN1CC(=O)NCC#Cc2cccc3c2/C(=C/Nc2cccc(c2)S1(=O)=O)C(=O)N3 : 2.01
CN1CCCCCC(=O)N(C)CCNc2ncnc3c2/C(=C/Nc2cccc(c2)C1)C(=O)N3 : 3.15

List the reported log10(IC50) of each molecule below.
1. CN1CCCCC(=O)N(C)CCNc2ncnc3c2/C(=C/Nc2cccc(c2)C1)C(=O)N3
2. COc1cc2cc(c1OC)CN(C)CC(=O)N(C)CCCCNc1ncnc3c1/C(=C/N2)C(=O)N3

[3.52, 3.70]

List the reported log10(IC50) of each molecule below.
1. CN1CC(=O)N(C)CCCCNc2ncnc3c2/C(=C/Nc2cccc(c2)C1)C(=O)N3
2. CN1CCCCCC(=O)N2CCN(CC2)c2ncnc3c2/C(=C/Nc2cccc(c2)C1)C(=O)N3
3. COc1cc2cc(c1OC)OCCCC(=O)N(C)CCNc1ncnc3c1/C(=C/N2)C(=O)N3
4. CN1CCNc2ncnc3c2/C(=C/Nc2ccc(Cl)c(c2)OCCCC1=O)C(=O)N3
5. O=C1Nc2ncnc3c2C1=CNc1ccc(cc1)S(=O)(=O)NCCCCC(=O)N1CCN3CC1 (mixture of isomers)
6. CN1CCCNc2ncnc3c2/C(=C/Nc2ccc(NC(=O)Nc4ccccc4)c(c2)OCCCC1=O)C(=O)N3
7. CN1CCCC(=O)N(C)CCCNc2ncnc3c2/C(=C/Nc2cccc(c2)C1)C(=O)N3

3.45
3.18
2.62
3.24
3.74
3.44
3.57

Please give the documented log10(IC50) of "COc1ccc2cc1OCCCCCC(=O)N(C)CCCN(C)c1ncnc3c1/C(=C/N2)C(=O)N3"
3.47

###

# System: SKOV3
# METHOD SUMMARY: Cellular proliferation assay (Alamar blue), SKOV3
# Type: cell-based
# TEST CONDITIONS: Homo sapiens, SK-OV-3, SKOV3 cells, 72 hours with compound, 10% FCS, read-out: pIC50 SKOV3 (converted)
Field: IC50. Provide a value for each of the compounds that follow.
Numbers only, in µM.

COc1ccc2cc1OCCCC(=O)N(C)CCCN(C)c1ncnc3c1/C(=C/N2)C(=O)N3 : 1.35
COc1ccc2cc1OCCCC(=O)N1CCN(CC1)c1ncnc3c1/C(=C/N2)C(=O)N3 : 4.68

List the reported IC50 of each compound below.
1. CN1CCN(c2ccc3cc2CN(C)CCCCC(=O)N(C)CCCNc2ncnc4c2/C(=C/N3)C(=O)N4)CC1
2. COc1ccc2cc1OCCCCCC(=O)N1CCN(CC1)c1ncnc3c1/C(=C/N2)C(=O)N3

1: 8.32; 2: 2.09

###

# TEST TARGET: AuroraB (h) (Homo sapiens)
# METHOD SUMMARY: Aurora-B human kinase assay (SPA)
# Type: biochemical
# TEST CONDITIONS: read-out: AuroraB pIC50 (converted)
EXPERIMENTAL ENDPOINT: IC50

CN1CCCCCCC(=O)N(C)CCNc2ncnc3c2/C(=C/Nc2cccc(c2)C1)C(=O)N3 : > 10 µM
CN1CCNc2ncnc3c2/C(=C/Nc2ccc(N4CCOCC4)c(c2)OCCCC1=O)C(=O)N3 : > 10 µM

List the reported IC50 of each molecule below.
1. O=C1Nc2ncnc3c2/C1=C/Nc1ccc(Cl)c(c1)OCCN1C[C@H](O)C[C@@H]1C(=O)N1CCN3CC1
2. CN1CCN(c2ccc3cc2CN(C)CCCCC(=O)N(C)CCCNc2ncnc4c2/C(=C/N3)C(=O)N4)CC1
3. CN1CCNc2ncnc3c2/C(=C/Nc2ccc(Cl)c(c2)OCCN2C[C@H](O)C[C@@H]2C1=O)C(=O)N3

> 10 µM
> 10 µM
> 10 µM

List the reported IC50 of each molecule below.
1. COc1ccc2cc1CN(C)CCCCC(=O)N(C)CCCNc1ncnc3c1/C(=C/N2)C(=O)N3
2. COc1cc2cc(c1OC)OCCCC(=O)N(C)CCCNc1ncnc3c1/C(=C/N2)C(=O)N3
3. CN1CCCNc2ncnc3c2/C(=C/Nc2ccc(NCc4ccccc4)c(c2)OCCCC1=O)C(=O)N3

["> 10 µM", "0.191 µM", "0.537 µM"]

###

# TEST TARGET: AuroraB (h) (Homo sapiens, UniProt Q96GD4)
# Sequence (Q96GD4 whole entry): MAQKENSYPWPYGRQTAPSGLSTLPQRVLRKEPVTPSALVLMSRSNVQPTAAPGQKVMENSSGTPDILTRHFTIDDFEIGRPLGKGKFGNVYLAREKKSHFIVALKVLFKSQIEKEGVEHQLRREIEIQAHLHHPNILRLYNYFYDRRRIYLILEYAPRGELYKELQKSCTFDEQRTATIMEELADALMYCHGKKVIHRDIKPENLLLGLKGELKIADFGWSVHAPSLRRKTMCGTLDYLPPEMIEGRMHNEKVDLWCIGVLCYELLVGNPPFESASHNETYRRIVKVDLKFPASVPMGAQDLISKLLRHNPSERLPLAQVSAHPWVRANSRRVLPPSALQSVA
# METHOD SUMMARY: Aurora-B human kinase assay (SPA)
# Format: biochemical
# TEST CONDITIONS: read-out: AuroraB pIC50 (converted)
EXPERIMENTAL ENDPOINT: IC50 (µM)
One number for each entry, in µM.

List the reported IC50 of each molecule below.
1. CN1CCC(=O)N(C)CCNc2ncnc3c2/C(=C/Nc2ccc(Cl)c(c2)OCC(O)C1)C(=O)N3 (stereo not shown) [Compound 104]
2. CN1CCCNc2ncnc3c2/C(=C/Nc2cc(cc(C(F)(F)F)c2)OCCCC1=O)C(=O)N3 [Compound 113]
3. CN1CCCNc2ncnc3c2/C(=C/Nc2cccc(c2)OCC(=O)N[C@H](Cc2ccccc2)C1)C(=O)N3 [Compound 176]

[3.39, 1.38, 6.76]

###

# TEST TARGET: CDK1/CyclinB (h) (Homo sapiens, UniProt P06493)
# Sequence (P06493 whole entry): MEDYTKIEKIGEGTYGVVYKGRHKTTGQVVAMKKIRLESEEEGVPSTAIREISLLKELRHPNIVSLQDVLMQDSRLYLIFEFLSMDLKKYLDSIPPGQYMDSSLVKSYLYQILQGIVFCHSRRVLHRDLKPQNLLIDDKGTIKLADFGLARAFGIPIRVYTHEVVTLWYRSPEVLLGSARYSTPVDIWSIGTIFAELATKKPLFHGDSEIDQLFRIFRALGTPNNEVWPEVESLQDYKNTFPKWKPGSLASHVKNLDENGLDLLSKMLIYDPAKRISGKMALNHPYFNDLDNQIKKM
# Sequence (P14635 whole entry partner): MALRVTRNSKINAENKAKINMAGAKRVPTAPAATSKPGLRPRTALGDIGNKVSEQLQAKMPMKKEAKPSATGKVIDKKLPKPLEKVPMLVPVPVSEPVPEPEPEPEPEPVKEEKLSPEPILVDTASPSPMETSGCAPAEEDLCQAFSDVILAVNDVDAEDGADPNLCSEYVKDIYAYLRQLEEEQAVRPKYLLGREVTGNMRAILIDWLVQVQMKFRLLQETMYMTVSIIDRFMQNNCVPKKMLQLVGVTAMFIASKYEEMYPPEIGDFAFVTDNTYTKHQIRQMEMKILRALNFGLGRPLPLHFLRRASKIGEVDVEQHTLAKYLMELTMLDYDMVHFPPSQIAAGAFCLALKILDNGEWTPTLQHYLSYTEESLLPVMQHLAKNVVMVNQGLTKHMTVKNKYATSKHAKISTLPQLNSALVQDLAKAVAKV
# METHOD SUMMARY: CDK1/CyclinB human kinase assay (FRET)
# Type: biochemical
# TEST CONDITIONS: read-out: CDK1 pIC50 (converted)
# Experimental: The in vitro inhibition of a panel of kinases was assessed using either the scintillation proximity assay (SPA) as described by Cook, N. D. et al., Advances in Experimental Medicine and Biology (1991), 36; p. 525-528; or the Fluorescence Resonance Energy Transfer (FRET) technology as described by Rodems, S. M. et al., Assay Drug Develop. Technol. (2002), 1; p. 9-19. […]
EXPERIMENTAL ENDPOINT: IC50

CN1CCCCCC(=O)N(C)CCNc2ncnc3c2/C(=C/Nc2ccc(N4CCOCC4)c(c2)C1)C(=O)N3 : > 10 µM
CN1CCNc2ncnc3c2/C(=C/Nc2ccc(N4CCOCC4)c(c2)OCCCC1=O)C(=O)N3 : > 10 µM
N#Cc1ccc2cc1OCCCCC(=O)N1CCN(CC1)c1ncnc3c1/C(=C/N2)C(=O)N3 : > 10 µM
COc1ccc2cc1CN(C)CCCCC(=O)N(C)CCNc1ncnc3c1/C(=C/N2)C(=O)N3 : 5.37 µM
CN1CCCCCC(=O)N(C)CCNc2ncnc3c2/C(=C/Nc2cccc(c2)C1)C(=O)N3 : > 10 µM

List the reported IC50 of each compound below.
1. COc1ccc2cc1OCCCC(=O)N(C)CCCN(C)c1ncnc3c1/C(=C/N2)C(=O)N3
2. CN1CCCN(C)c2ncnc3c2/C(=C/Nc2cccc(c2)OCCCCCCC1=O)C(=O)N3
3. COc1ccc2cc1OCCCCCC(=O)N1CCN(CC1)c1ncnc3c1/C(=C/N2)C(=O)N3

1. 4.68 µM
2. > 10 µM
3. > 10 µM
